# ASSAY SYSTEM: ROCK2 (Homo sapiens, UniProt O75116)
# Sequence (O75116 whole entry, species assumed): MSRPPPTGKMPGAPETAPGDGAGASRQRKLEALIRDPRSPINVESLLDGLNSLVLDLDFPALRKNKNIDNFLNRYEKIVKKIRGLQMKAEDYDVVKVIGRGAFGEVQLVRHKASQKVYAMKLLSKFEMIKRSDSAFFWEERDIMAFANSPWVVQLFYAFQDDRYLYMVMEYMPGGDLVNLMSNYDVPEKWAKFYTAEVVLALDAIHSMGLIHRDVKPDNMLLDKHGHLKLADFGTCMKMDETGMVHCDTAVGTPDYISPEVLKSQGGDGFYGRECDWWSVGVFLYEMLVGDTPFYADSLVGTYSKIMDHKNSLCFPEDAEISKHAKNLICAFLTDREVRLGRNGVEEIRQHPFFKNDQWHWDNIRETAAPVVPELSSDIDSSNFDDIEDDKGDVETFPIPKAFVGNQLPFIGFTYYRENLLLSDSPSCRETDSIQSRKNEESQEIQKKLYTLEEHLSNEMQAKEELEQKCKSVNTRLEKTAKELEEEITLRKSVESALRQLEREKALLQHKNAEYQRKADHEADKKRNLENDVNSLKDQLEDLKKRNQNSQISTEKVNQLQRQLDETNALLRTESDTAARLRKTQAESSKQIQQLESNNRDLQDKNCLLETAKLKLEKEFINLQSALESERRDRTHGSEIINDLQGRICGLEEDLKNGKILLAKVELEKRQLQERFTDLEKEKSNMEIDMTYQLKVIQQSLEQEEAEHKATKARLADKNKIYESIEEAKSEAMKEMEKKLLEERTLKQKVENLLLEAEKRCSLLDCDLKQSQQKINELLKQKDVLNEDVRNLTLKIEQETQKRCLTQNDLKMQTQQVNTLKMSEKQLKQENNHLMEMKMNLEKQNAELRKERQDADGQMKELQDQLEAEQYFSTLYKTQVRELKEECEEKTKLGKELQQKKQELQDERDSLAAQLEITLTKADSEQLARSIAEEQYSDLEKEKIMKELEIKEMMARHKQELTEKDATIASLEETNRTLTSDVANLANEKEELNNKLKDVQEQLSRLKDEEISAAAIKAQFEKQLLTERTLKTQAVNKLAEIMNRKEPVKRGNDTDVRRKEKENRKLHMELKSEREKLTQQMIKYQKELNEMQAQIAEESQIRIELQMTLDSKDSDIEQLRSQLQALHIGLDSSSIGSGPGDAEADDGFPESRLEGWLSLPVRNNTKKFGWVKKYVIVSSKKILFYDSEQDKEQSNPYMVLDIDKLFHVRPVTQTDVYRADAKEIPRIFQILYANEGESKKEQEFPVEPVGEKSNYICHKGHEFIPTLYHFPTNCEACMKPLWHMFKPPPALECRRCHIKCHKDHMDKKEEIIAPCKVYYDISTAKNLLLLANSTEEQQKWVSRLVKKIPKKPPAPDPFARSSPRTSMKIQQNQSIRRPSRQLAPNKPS
# METHOD NOTES: ROCK2 kinase inhibition assay (LABCHIP 3000 Reader, FITC peptide substrate)
VALUE KIND: IC50

The molecule NC(=O)c1cccnc1O[C@H]1CC2(C[C@H](NC(=O)c3cnn4cc(N5CCOCC5)ccc34)C2)C1 (stereo partly shown) on ROCK2 (Homo sapiens, UniProt O75116): IC50 was 5 to 50 nM

* * *

# ASSAY SYSTEM: ROCK2 (Homo sapiens, UniProt O75116)
# METHOD NOTES: ROCK2 kinase inhibition assay (LABCHIP 3000 Reader, FITC peptide substrate)
pIC50: −log10 of the molar value.
Items are presented alongside their recorded pIC50.

Some solved entries appear below for comparison.
NC(=O)c1cccnc1O[C@H]1CC2(C[C@H](NC(=O)c3cnn4c(C5CC5)c(OCC5CCCO5)ccc34)C2)C1 (stereo partly shown)    > 8.30
NC(=O)c1cccnc1O[C@H]1CC2(C[C@H](NC(=O)c3c(C(F)(F)F)nc4ccc(Cl)cn34)C2)C1 (stereo partly shown)    5.60 to 6.60
CC(C)(O)COc1ccc2c(C(=O)NC3CC4(C3)CC(Oc3cc(-c5cccc(CCN)c5)ccc3C(N)=O)C4)cnn2c1 (stereo not shown)    > 8.30
[H][C@]1(Oc2ncccc2C(N)=O)C[C@@]2(C[C@H](NC(=O)c3cnc4c(OC)cc(Cl)nn34)C2)C1 (stereo partly shown)    5.60 to 6.60
Cc1nnnn1-c1cccc(C(=O)N[C@H]2CC3(C2)C[C@H](Oc2ncccc2C(N)=O)C3)c1 (stereo partly shown)    6.60 to 7.30
NC(=O)c1cccnc1O[C@H]1CC2(C[C@H](NC(=O)c3nc(-c4ccccn4)cs3)C2)C1 (stereo partly shown)    5.60 to 6.60

// moving on: another record for pIC50
Memo: CC(C)(O)Cn1cc(-c2ccc3c(C(=O)N[C@H]4CC5(C4)C[C@H](Oc4ncccc4C(N)=O)C5)nnn3c2)cn1 (stereo partly shown) , reported pIC50: 7.30 to 8.30

* * *

Items are presented alongside their recorded IC50.
# ASSAY SYSTEM: ROCK2 (Homo sapiens, UniProt O75116)
# METHOD NOTES: ROCK2 kinase inhibition assay (LABCHIP 3000 Reader, FITC peptide substrate);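 note: rho kinase reaction read by separating phosphorylated from unphosphorylated peptide on chip, with inhibition of kinase activity computed per concentration across a dose-response series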

Some solved entries appear below for comparison.
CC(C)(O)COc1ccc2c(C(=O)N[C@H]3CC4(C3)C[C@H](Oc3ncccc3C(N)=O)C4)nn(CC(C)(C)O)c2c1 (some centres unmarked) [Example 127]    5 to 50 nM
Cn1nc(C(=O)N[C@H]2CC3(C2)C[C@H](Oc2ncccc2C(N)=O)C3)c2ccccc21 (some centres unmarked) [Example 66]    5 to 50 nM
NC(=O)c1cccnc1O[C@H]1CC2(C[C@H](NC(=O)c3nn(C(F)F)c4cc(-c5cnn(C(F)F)c5)ccc34)C2)C1 (some centres unmarked) [Example 112]    < 5 nM

Memo: Cc1nc(N2CCC(F)(F)C2)sc1C(=O)N[C@H]1CC2(C1)C[C@H](Oc1ncccc1C(N)=O)C2 (some centres unmarked) [Example 92] , reported IC50: 50 to 250 nM

Memo: CC(C)(O)COc1ccc2c(C(=O)N[C@H]3CC4(C3)C[C@H](Oc3ncccc3C(N)=O)C4)cnn2c1 (some centres unmarked) [Example 64] , reported IC50: 5 to 50 nM
